For each entry below, report its SDDA area increase value.
System: P. acnes NCTC 737
Experiment: Synergy disc diffusion assay (SDDA), also supplemented
Give bare numbers, in %.

Solved entries:
- MOLECULE: "O.O=C([O-])C(O)C(O)C(=O)[O-].[Cu+2] (centres unmarked) [Copper (II) tartrate hydrate]"
  RECORDED_NUMBER: 20.27
- MOLECULE: "On1ccccc1=S.On1ccccc1=S.[Cu] [Copper (II) pyrithione]"
  RECORDED_NUMBER: 18.55
- MOLECULE: "O.O.O.O.O.O=S(=O)([O-])[O-].[Cu+2] [Copper (II) sulphate pentahydrate]"
  RECORDED_NUMBER: 108.63

Hi there! I need SDDA area increase for each item below, if you can.
1. CC(=O)[O-].CC(=O)[O-].[Cu+2] [Copper (II) acetate]
2. CC(=O)[O-].[Cu+] [Copper (I) acetate]

Ans.
1. 56
2. 84.62

* * *

Test system: P. acnes NCTC 737
Assay: Synergy disc diffusion assay (SDDA), also supplemented
Settings: quinone + CSPH; unsupplemented
For each entry below, report its SDDA area increase value.
Don't forget the unit after the number, please.

Solved entries:
- COMPOUND: "CCc1cc(O)ccc1O [2-ethyl-p-hydroquinone]"
  SDDA area increase: "44.00%"
- COMPOUND: "CC(C)(C)C1=CC(=O)C=CC1=O"
  SDDA area increase: "61.51%"
- COMPOUND: "CC1=CC(=O)C=CC1=O"
  SDDA area increase: "38.80%"
- COMPOUND: "O=C1C=CC(=O)C(Cl)=C1"
  SDDA area increase: "26.42%"

Qu. So what does the record say about SDDA area increase for Cc1cc(O)ccc1O [2-methyl-p-hydroquinone] ?
Ans. 24.24%

* * *

System: P. acnes NCTC 737
Assay: Synergy disc diffusion assay (SDDA), also supplemented
Conditions: copper salt + TBHQ; unsupplemented
Entry flag: Condition met if SDDA area increase reaches 90%; Condition not met if it does not.

# example entries with known answers
- MOLECULE: "[Cu][Br] [Copper (I) bromide]"
  STUDY_TARGET: "P. acnes NCTC 737"
  LABEL_VALUE: "Condition met"
- MOLECULE: "[Cl-].[Cu+2].[Cu+2].[OH-].[OH-].[OH-] [Copper (II) oxychloride]"
  STUDY_TARGET: "P. acnes NCTC 737"
  LABEL_VALUE: "Condition not met"
- MOLECULE: "[Br][Cu][Br] [Copper (II) bromide]"
  STUDY_TARGET: "P. acnes NCTC 737"
  LABEL_VALUE: "Condition not met"

Then there is this molecule:
Qu. In plain terms: is recorded SDDA area increase at least 90% for [Cu+].[I-] [Copper (I) iodide] ?
Ans. Condition met

* * *

Tested on: P. acnes NCTC 737
Test: Synergy disc diffusion assay (SDDA), also supplemented
Details: copper salt + TBHQ on one disc, 200 μg of each (silicate 62 μg); unsupplemented
VALUE_TYPE: SDDA with TBHQ (mm)
Give bare numbers, in mm.

- COMPOUND: "CC(=O)Oc1ccccc1C(=O)[O-].CC(=O)Oc1ccccc1C(=O)[O-].CC(=O)Oc1ccccc1C(=O)[O-].CC(=O)Oc1ccccc1C(=O)[O-].[Cu+2].[Cu+2] [Copper (II) aspirinate]"
  UNIT_NAME: "mm"
  SDDA with TBHQ: 60.80

Hi there! I need SDDA with TBHQ for each item below, if you can.
1. [Cu+].[I-] [Copper (I) iodide]
2. [Cl-].[Cu+2].[Cu+2].[OH-].[OH-].[OH-] [Copper (II) oxychloride]
3. [Cu][Br] [Copper (I) bromide]
4. [Br][Cu][Br] [Copper (II) bromide]

Ans.
1. 70.08
2. 59.45
3. 54.65
4. 66.3
